Target: SARS-CoV-2 M^pro (Severe acute respiratory syndrome coronavirus 2, UniProt P0DTD1)
Test: In vitro FRET enzymatic assay (screening at 1 µM and SAR IC50)
Assay type: biochemical
Details: read-out: M^pro inhibition % (comp. conc. 1 µM)
inhibition at 1 µM overview
Write it as a number; the unit % goes unstated.

>>> measured_value("N#Cc1cc(C(=O)N[C@H](CC2CCC2)C(=O)N[C@H](CC(=O)N[C@H](Cc2ccncc2)C(=O)NCc2ccccn2)Cc2c[nH]c3ccccc23)ccn1")
98.2
>>> measured_value("N#Cc1cc(C(=O)N[C@H](CC2CCC2)C(=O)N[C@H](CC(=O)N[C@H](Cc2ccncc2)C(=O)NCc2cccc(Cl)c2)Cc2c[nH]c3ccccc23)ccn1")
66.8
>>> measured_value("N#Cc1cc(C(=O)N[C@H](Cc2ccc(Cl)c(Cl)c2)C(=O)N[C@H](CC(=O)N[C@H](Cc2ccncc2)C(=O)O)Cc2c[nH]c3ccccc23)ccn1")
90.7
>>> measured_value("N#Cc1cc(C(=O)N[C@H](CC2CCC2)C(=O)N[C@H](CC(=O)N[C@H](Cc2ccncc2)C(=O)NCc2ccccc2)Cc2c[nH]c3ccccc23)ccn1")
96.5

# input for lookup
### Prompt Fill blank: measured inhibition at 1 µM of the molecule "CCCC[C@@H](NC(=O)c1ccnc(C#N)c1)C(=O)N[C@H](CC(=O)N[C@H](Cc1ccncc1)C(=O)O)Cc1c[nH]c2ccccc12" is ____.
### Response 86.6

====

Target: SARS-CoV-2 M^pro (Severe acute respiratory syndrome coronavirus 2)
Experiment: In vitro FRET enzymatic assay (screening at 1 µM and SAR IC50)
Type: biochemical
Details: IC50 ± SEM
Quick list: IC50 per entry.
Response body: numeric value in nM, unit text excluded.

### Prompt I would be grateful if you could share the reported IC50 for "N#Cc1cc(C(=O)N[C@H](Cc2ccc(Cl)c(Cl)c2)C(=O)N[C@H](CC(=O)N[C@H](Cc2ccncc2)C(=O)O)Cc2c[nH]c3ccccc23)ccn1" .
### Response 69

### Prompt Could you share which IC50 value was measured for "N#Cc1cc(C(=O)N[C@H](CC2CCC2)C(=O)N[C@H](CC(=O)N[C@H](Cc2ccncc2)C(=O)NCCN2CCOCC2)Cc2c[nH]c3ccccc23)ccn1" ?
### Response 47

### Prompt Can you share its IC50? I mean this molecule: "N#Cc1cc(C(=O)N[C@H](Cc2ccc(Cl)cc2)C(=O)N[C@H](CC(=O)N[C@H](Cc2ccncc2)C(=O)O)Cc2c[nH]c3ccccc23)ccn1"
### Response 71

### Prompt What does the record list as IC50 for "N#Cc1cc(C(=O)N[C@H](CC2CCC2)C(=O)N[C@H](CC(=O)N[C@H](Cc2ccncc2)C(=O)NCc2ccccn2)Cc2c[nH]c3ccccc23)ccn1" ?
### Response 45

### Prompt Find the recorded IC50 belonging to "N#Cc1cc(C(=O)N[C@H](CC2CCC2)C(=O)N[C@H](CC(=O)N[C@H](Cc2ccncc2)C(=O)NCCc2c[nH]c3ccccc23)Cc2c[nH]c3ccccc23)ccn1" and report it.
### Response 33

====

Listed next: entries and their corresponding inhibition at 1 µM.
Target: UniProt:P0DTD1
Experiment: In vitro FRET enzymatic assay (screening at 1 µM and SAR IC50)
Format: biochemical
Settings: read-out: M^pro inhibition % (comp. conc. 1 µM)

### Prompt // map N#Cc1cc(C(=O)N[C@H](CC2CCC2)C(=O)N[C@H](CC(=O)O)Cc2c[nH]c3ccccc23)ccn1 [MP2] to recorded inhibition at 1 µM (system: UniProt:P0DTD1)
### Response ~2%

### Prompt Find the measured inhibition at 1 µM: item CC(=O)c1cccc(C(=O)N[C@H](CC2CCC2)C(=O)N[C@H](CC(=O)N[C@H](Cc2ccncc2)C(=O)O)Cc2c[nH]c3ccccc23)c1 [MP8] , target or system UniProt:P0DTD1.
### Response ~18%

### Prompt Query for UniProt:P0DTD1: what inhibition at 1 µM does the record show for N#Cc1cc(C(=O)N[C@H](CC2CCC2)C(=O)NCCC(=O)N[C@H](Cc2ccncc2)C(=O)O)ccn1 [MP5] ?
### Response ~8%

### Prompt Notebook entry, UniProt:P0DTD1 assay: inhibition at 1 µM of N#Cc1cc(C(=O)N[C@H](CC2CCC2)C(=O)N[C@H](CC(=O)N[C@H](Cc2ccc(Cl)cc2)C(=O)O)Cc2c[nH]c3ccccc23)ccn1 [MP4] = ?
### Response ~30%

### Prompt Notebook entry, UniProt:P0DTD1 assay: inhibition at 1 µM of N#Cc1cc(C(=O)N[C@H](CC2CCC2)C(=O)N[C@H](CC(=O)N[C@H](Cc2ccccc2)C(=O)O)Cc2c[nH]c3ccccc23)ccn1 [MP3] = ?
### Response ~30%
